# Test system: RPMI-8226
# measurement.protocol: NCI-60 one-dose screen
# Format: cell-based
# experimental.context: Homo sapiens; RPMI-8226, Leukemia panel; single dose 10^−5 M; read-out: Growth inhibition %
So I've got a bunch of compounds here, and I need their inhibition at 10 µM values.
Answer in %, number only, no unit symbol.

stdin: Any idea what inhibition at 10 µM was measured for Fc1ccc(CNc2c3ccccc3nc3ccccc23)c(F)c1 ?
stdout: 71.7

stdin: Param item: Cc1ccc2nc3ccccc3c(NCc3ccccc3)c2c1
stdout: 93.2

stdin: Param item: Cc1cccc(CNc2c3ccccc3nc3ccccc23)c1
stdout: 120

stdin: Param item: Clc1ccccc1CNc1c2ccccc2nc2ccccc12
stdout: 127

stdin: Param item: COc1ccc2nc3ccccc3c(NCc3ccccc3)c2c1
stdout: 131

stdin: Param item: COc1ccccc1CNc1c2ccccc2nc2ccccc12
stdout: 91.9

stdin: Param item: c1coc(CNc2c3ccccc3nc3ccccc23)c1
stdout: 43.4

stdin: Param item: COc1cccc(CNc2c3ccccc3nc3ccccc23)c1
stdout: 83.3

stdin: Param item: COc1cccc(CNc2c3ccccc3nc3ccccc23)c1OC
stdout: 83

stdin: Param item: COc1ccc2nc3ccccc3c(NCc3ccc(C)cc3)c2c1
stdout: 146

stdin: Param item: Fc1ccc(CNc2c3ccccc3nc3ccccc23)cc1F
stdout: 73.1

stdin: Param item: Cc1ccc2nc3ccccc3c(NCc3ccc(Cl)cc3)c2c1
stdout: 128

stdin: Param item: Clc1ccc(CNc2c3ccccc3nc3ccccc23)cc1
stdout: 92

stdin: Param item: COc1ccc(CNc2c3ccccc3nc3ccccc23)cc1
stdout: 84.2

* * *

# Test system: NCI-H460
# measurement.protocol: NCI-60 one-dose screen
# Format: cell-based
# experimental.context: Homo sapiens; NCI-H460, Non-small cell lung panel; single dose 10^−5 M; read-out: Growth inhibition %
# Protocol: The newly synthesized compounds were screened for their in vitro anticancer activity at the Developmental Therapeutic Program (DTP) of the National Cancer Institute (NCI). The screening involved a panel of 60 human tumor cell lines consisting of 9 tissue types to screen for potential anti-cancer agents. The primary screening of submitted compounds was performed by testing a single dose (10^−5 M) in the full NCI-60 panel. […]
reported.endpoint: inhibition at 10 µM (%)
Answer in %, number only, no unit symbol.

stdin: Any idea what inhibition at 10 µM was measured for COc1ccc(CNc2c3ccccc3nc3ccccc23)cc1OC ?
stdout: 93.8

stdin: Param item: COc1ccc2nc3ccccc3c(NCc3ccc(Cl)cc3)c2c1
stdout: 87.5

stdin: Param item: Fc1cccc(CNc2c3ccccc3nc3ccccc23)c1F
stdout: 52

stdin: Param item: Cc1ccc(CNc2c3ccccc3nc3ccccc23)cc1
stdout: 91.2

stdin: Param item: c1csc(-c2ccc(CNc3c4ccccc4nc4ccccc34)cc2)c1
stdout: 87.1

stdin: Param item: c1coc(CNc2c3ccccc3nc3ccccc23)c1
stdout: 43.5

stdin: Param item: COc1ccc(CNc2c3ccccc3nc3ccc(OC)cc23)cc1
stdout: 93.5

stdin: Param item: Cc1ccccc1CNc1c2ccccc2nc2ccccc12
stdout: 93.1

stdin: Param item: COc1ccc(CNc2c3ccccc3nc3ccccc23)cc1
stdout: 90.3

stdin: Param item: COc1ccc2nc3ccccc3c(NCc3ccccc3)c2c1
stdout: 93.7

stdin: Param item: Clc1ccccc1CNc1c2ccccc2nc2ccccc12
stdout: 91.2

stdin: Param item: Cc1cccc(CNc2c3ccccc3nc3ccccc23)c1
stdout: 91.3

stdin: Param item: Clc1cccc(CNc2c3ccccc3nc3ccccc23)c1
stdout: 85.8

stdin: Param item: Fc1ccc(CNc2c3ccccc3nc3ccccc23)cc1F
stdout: 85.4

stdin: Param item: COc1ccc2nc3ccccc3c(NCc3ccc(F)cc3)c2c1
stdout: 94.5

stdin: Param item: COc1ccc(CNc2c3ccccc3nc3ccccc23)cc1F
stdout: 93.7

* * *

So I've got a bunch of compounds here, and I need their inhibition at 10 µM values.
# Test system: HS 578T
# measurement.protocol: NCI-60 one-dose screen
# Format: cell-based
# experimental.context: Homo sapiens, Breast Cancer panel, single dose 10^−5 M, read-out: Growth inhibition %
Answer in %, number only, no unit symbol.

stdin: Lab note: need inhibition at 10 µM with HS 578T for entry Fc1ccc(CNc2c3ccccc3nc3ccccc23)cc1 [Compound 10, Acridin-9-yl-(4-fluorobenzyl)-amine] , please look it up.
stdout: 60.5

stdin: Param item: COc1cccc(CNc2c3ccccc3nc3ccccc23)c1 [Compound 6, Acridin-9-yl-(3-methoxybenzyl)-amine]
stdout: 44.4

stdin: Param item: c1ccc(CCNc2c3ccccc3nc3ccccc23)cc1 [Compound 23, Acridin-9-yl-phenethyl-amine]
stdout: 26.7

stdin: Param item: COc1ccc2nc3ccccc3c(NCc3ccc(Cl)cc3)c2c1 [Compound 29]
stdout: 64

stdin: Param item: Cc1ccccc1CNc1c2ccccc2nc2ccccc12 [Compound 2, Acridin-9-yl-(2-methylbenzyl)-amine]
stdout: 64.3

stdin: Param item: c1ccc(CNc2c3ccccc3nc3ccccc23)cc1 [Compound 1, Acridin-9-yl-benzyl-amine]
stdout: 43.9

stdin: Param item: Fc1cccc(CNc2c3ccccc3nc3ccccc23)c1F [Compound 20, Acridin-9-yl-(2,3-difluorobenzyl)-amine]
stdout: 13

stdin: Param item: COc1ccc(CNc2c3ccccc3nc3ccccc23)cc1OC [Compound 18, Acridin-9-yl-(3,4-dimethoxybenzyl)-amine]
stdout: 62.8

stdin: Param item: Fc1ccc(CNc2c3ccccc3nc3ccccc23)cc1F [Compound 22, Acridin-9-yl-(3,4-difluorobenzyl)-amine]
stdout: 35.2

stdin: Param item: Cc1cccc(CNc2c3ccccc3nc3ccccc23)c1 [Compound 3, Acridin-9-yl-(3-methylbenzyl)-amine]
stdout: 69.7

stdin: Param item: COc1cccc(CNc2c3ccccc3nc3ccccc23)c1OC [Compound 16, Acridin-9-yl-(2,3-dimethoxybenzyl)-amine]
stdout: 35.7

stdin: Param item: COc1ccc2nc3ccccc3c(NCc3ccccc3)c2c1 [Compound 25, Benzyl-(2-methoxyacridin-9-yl)-amine]
stdout: 74.8

stdin: Param item: Fc1ccc(CNc2c3ccccc3nc3ccccc23)c(F)c1 [Compound 21, Acridin-9-yl-(2,4-difluorobenzyl)-amine]
stdout: 24.6

stdin: Param item: Cc1ccc(CNc2c3ccccc3nc3ccccc23)cc1 [Compound 4, Acridin-9-yl-(4-methylbenzyl)-amine]
stdout: 61.5

* * *

# Test system: UO-31
# measurement.protocol: NCI-60 one-dose screen
# Format: cell-based
# experimental.context: Homo sapiens; UO-31, Renal Cancer panel; single dose 10^−5 M; read-out: Growth inhibition %
reported.endpoint: inhibition at 10 µM (%)
Answer in %, number only, no unit symbol.

stdin: Lab note: need inhibition at 10 µM with UO-31 for entry COc1cccc(CNc2c3ccccc3nc3ccccc23)c1 [Compound 6, Acridin-9-yl-(3-methoxybenzyl)-amine] , please look it up.
stdout: 73

stdin: Param item: Clc1ccccc1CNc1c2ccccc2nc2ccccc12 [Compound 11, Acridin-9-yl-(2-chlorobenzyl)-amine]
stdout: 82.5

stdin: Param item: COc1ccc2nc3ccccc3c(NCc3ccc(Cl)cc3)c2c1 [Compound 29]
stdout: 98.1

stdin: Param item: COc1ccc2nc3ccccc3c(NCc3ccc(F)cc3)c2c1 [Compound 28]
stdout: 108

* * *

# Tested on: HCT-116
# measurement.protocol: MTT cell proliferation assay, HCT-116
# experimental.context: 10 µM, 72 h MTT, means ± SD
reported.endpoint: % Inhibition at 10 µM (%)
Answer in %, number only, no unit symbol.

stdin: Any idea what % Inhibition at 10 µM was measured for COc1ccc2nc3ccccc3c(NCc3ccccc3)c2c1 ?
stdout: 59.62

stdin: Param item: Clc1ccccc1CNc1c2ccccc2nc2ccccc12
stdout: 63.49

stdin: Param item: COc1ccc2nc3ccccc3c(NCc3ccc(C)cc3)c2c1
stdout: 38.11

stdin: Param item: c1csc(CNc2c3ccccc3nc3ccccc23)c1
stdout: 39.65

stdin: Param item: Clc1cccc(CNc2c3ccccc3nc3ccccc23)c1
stdout: 63.40

stdin: Param item: c1ccc(CNc2c3ccccc3nc3ccccc23)cc1
stdout: 67.16

stdin: Param item: Cc1ccccc1CNc1c2ccccc2nc2ccccc12
stdout: 66.96

stdin: Param item: Fc1ccc(CNc2c3ccccc3nc3ccccc23)cc1
stdout: 67.57

stdin: Param item: Clc1ccc(CNc2c3ccccc3nc3ccccc23)cc1
stdout: 11.67

stdin: Param item: Cc1ccc2nc3ccccc3c(NCc3ccc(Cl)cc3)c2c1
stdout: 55.53

stdin: Param item: Cc1ccc(CNc2c3ccccc3nc3ccccc23)cc1
stdout: 69.31

stdin: Param item: COc1ccc2nc3ccccc3c(NCc3ccc(F)cc3)c2c1
stdout: 75.53

stdin: Param item: COc1ccc2nc3ccccc3c(NCc3ccc(Cl)cc3)c2c1
stdout: 28.83

stdin: Param item: Fc1ccc(CNc2c3ccccc3nc3ccccc23)cc1F
stdout: 56.92

stdin: Param item: Fc1ccc(CNc2c3ccccc3nc3ccccc23)c(F)c1
stdout: 67.37

* * *

So I've got a bunch of compounds here, and I need their inhibition at 10 µM values.
# System: U251
# measurement.protocol: NCI-60 one-dose screen
# Type: cell-based
# experimental.context: Homo sapiens, U-251; U251, CNS Cancer panel; single dose 10^−5 M; read-out: Growth inhibition %
Answer in %, number only, no unit symbol.

stdin: Lab note: need inhibition at 10 µM with U251 for entry Fc1cccc(CNc2c3ccccc3nc3ccccc23)c1F [Compound 20, Acridin-9-yl-(2,3-difluorobenzyl)-amine] , please look it up.
stdout: 34.5

stdin: Param item: COc1ccc2nc3ccccc3c(NCc3ccc(C)cc3)c2c1 [Compound 26]
stdout: 84.7

stdin: Param item: c1csc(-c2ccc(CNc3c4ccccc4nc4ccccc34)cc2)c1 [Compound 24]
stdout: 173

stdin: Param item: Cc1ccc(CNc2c3ccccc3nc3ccccc23)cc1 [Compound 4, Acridin-9-yl-(4-methylbenzyl)-amine]
stdout: 74

stdin: Param item: COc1ccc(CNc2c3ccccc3nc3ccc(OC)cc23)cc1 [Compound 27]
stdout: 83.9

stdin: Param item: c1coc(CNc2c3ccccc3nc3ccccc23)c1 [Compound 14, Acridin-9-yl-furan-2-ylmethyl-amine]
stdout: 34.9

stdin: Param item: Clc1ccc(CNc2c3ccccc3nc3ccccc23)cc1 [Compound 13, Acridin-9-yl-(4-chlorobenzyl)-amine]
stdout: 53.8

stdin: Param item: Fc1ccc(CNc2c3ccccc3nc3ccccc23)c(F)c1 [Compound 21, Acridin-9-yl-(2,4-difluorobenzyl)-amine]
stdout: 55.9

stdin: Param item: COc1ccc(CNc2c3ccccc3nc3ccccc23)cc1 [Compound 7, Acridin-9-yl-(4-methoxybenzyl)-amine]
stdout: 63.5

stdin: Param item: Clc1ccccc1CNc1c2ccccc2nc2ccccc12 [Compound 11, Acridin-9-yl-(2-chlorobenzyl)-amine]
stdout: 76.8

stdin: Param item: Cc1ccc2nc3ccccc3c(NCc3ccccc3)c2c1 [Compound 30, Benzyl-(2-methylacridin-9-yl)-amine]
stdout: 63

stdin: Param item: c1ccc(CCNc2c3ccccc3nc3ccccc23)cc1 [Compound 23, Acridin-9-yl-phenethyl-amine]
stdout: 58.9

stdin: Param item: Cc1ccc2nc3ccccc3c(NCc3ccc(Cl)cc3)c2c1 [Compound 31]
stdout: 74.9

stdin: Param item: COc1cccc(CNc2c3ccccc3nc3ccccc23)c1 [Compound 6, Acridin-9-yl-(3-methoxybenzyl)-amine]
stdout: 61.3

stdin: Param item: Fc1ccccc1CNc1c2ccccc2nc2ccccc12 [Compound 8, Acridin-9-yl-(2-fluorobenzyl)-amine]
stdout: 53.1

stdin: Param item: Cc1cccc(CNc2c3ccccc3nc3ccccc23)c1 [Compound 3, Acridin-9-yl-(3-methylbenzyl)-amine]
stdout: 76.3

// provenance: paper PMC9866191
